Test system: M14 melanoma
measurementNotes: NCI tumour cell line growth inhibition, 48 h
assayMetric: TGI

compound	valueObserved
COC1=CC(=O)c2nc(Cl)ccc2C1=O	3.52 µM
O=c1c(Cl)cc2nc3ccccc3sc-2c1Cl	37.2 µM
COc1cnc2c(c1)C(=O)c1c-2n(CCCN2CCNCC2)c(=O)c2cc([N+](=O)[O-])ccc12	1.49 µM
N#Cc1ccc(C2NN=CC23C(=O)c2ccccc2OC3c2ccccc2)cc1 (stereo not drawn)	> 100 µM
O=c1c2c(F)c(F)c(F)c(F)c2sc2nccn12	32 µM
CCCCCCCCC/C=C1/CC(CO)(COC(=O)c2ccccc2)OC1=O (stereo not drawn)	30.8 µM
O=C1C2C3C=CC(C2C(=O)N1CN1CCSCC1)C1C2C(=O)N(CN4CCSCC4)C(=O)C2C31 (stereo not drawn)	> 100 µM
Cc1ccc2nc(NC(=O)/C(=N\NC(=S)NN)C3C(=O)NC(=S)NC3=O)sc2c1	> 100 µM
COc1cc2ccc1OCc1cccc(n1)COc1ccc(cc1OC)C=NCCNCCN=C2	> 100 µM
CCCC(=O)NC(Nc1ccc(S(=O)(=O)Nc2ccc(OC)nn2)cc1)(C(F)(F)F)C(F)(F)F	> 100 µM
[CH3][Sn]([CH3])([CH3])[O][N+](=O)[O-]	> 10 µM
CCOC(=O)CNc1nnnn1C1OC(CO)C(O)C1O (stereo not drawn)	> 100 µM
COc1cc(/C=C/C(=O)c2c(C)nc3ccccc3c2C)ccc1OCCCN1CCN(C(=O)c2ccco2)CC1	23.8 µM
N#Cc1c(N2CCN(c3ccc([N+](=O)[O-])cc3)CC2)[n+](=O)c2ccccc2n1[O-]	> 100 µM
CC[C@@]1(CCC(=O)NCCc2c[nH]c3ccccc23)CCC(=O)N2CCc3c([nH]c4ccccc34)[C@H]21	> 100 µM
CCN=C(C#N)NCC	> 100 µM
CCOC(=O)C(Cc1ccc(N(CCCl)CCCl)cc1)NC(=O)CCCN1C(=O)CN=C(c2ccccc2)c2cc(Cl)ccc21 (stereo not drawn)	22.3 µM
CSc1ccc(C(=O)/C=C/c2ccccc2Cl)cc1	36.1 µM
Cc1cc(Cl)cc(Cc2cc(Cl)cc(C)c2O)c1O	11.3 µM
CC(C)C1N2CCCCC2[C@@H]2c3[nH]c4ccccc4c3CCN12 (stereo partly drawn)	> 100 µM
COCc1c(-c2ccc(NC(=O)Nc3cc(C(F)(F)F)ccc3F)c(F)c2)c2c(N)ncnn2c1CN1CCOCC1	> 10 µM
COc1cc2c[n+](C)c3c(c2cc1OC)Cc1cc2c(cc1-3)OCO2	> 100 µM
COc1cc2c(cc1C)NC(=O)/C2=C\c1c[nH]c2ccccc12	46.1 µM

* * *

Test system: HOP-62 NSCLC
measurementNotes: NCI tumour cell line growth inhibition, 48 h

compound	unitLabel	rel	TGI
CCCCN(CCCC)CCCn1cnc2ncccc2c1=O	µM	>	100
COC1=CC(=O)C2=C(C[C@@]3(C)C(=C2)C(CO)=CC[C@H]3O)C1=O	µM	=	49.6
Fc1ccc(Nc2nc3ccccc3c3occc23)cc1	µM	=	13.8
COc1c2c(cc3c1C(=O)Cc1ccc4c(c1CN(C)CC3)OCO4)OCO2	µM	>	100
O=[N+]([O-])c1cccc(N=Nc2c(O)ccc3ccccc23)c1	µM	>	100
CCCCCCCCC/C=C1/CC(CO)(COC(=O)c2ccccc2)OC1=O (stereo not drawn)	µM	=	19
CSCCC(C(=O)O)N(CC1(O)OCC(O)C(O)C1O)N=O (stereo not drawn)	µM	>	100
CCCCCCCCCCCCCB(O)O	µM	>	100
O=C1NC(c2cccc(OCc3ccccc3)c2)Nc2ccccc21 (stereo not drawn)	µM	=	26.3
CCOCc1cc(=O)c2c(OC)cc3c(c2o1)CCC(C)(C)O3	µM	>	100
COc1cc2c(cc1C)NC(=O)/C2=C\c1c[nH]c2ccccc12	µM	=	56.8
COCCn1cc(-c2csc(-c3c[nH]c4ccc(Br)cc34)n2)c2cccnc21	µM	=	47.7
CC(=O)/C(C=Nc1c(C)n(C)n(C)c1=O)=C(/O)c1ccccc1	µM	>	50

* * *

Tested on: MCF7 breast
measurementNotes: NCI tumour cell line growth inhibition, 48 h
This listing pairs compounds with measured TGI.
assayMetric: TGI

compound	valueObserved
COc1cc(/C=N/NC2=NCCCCN2)ccc1O	> 100 µM
Cc1csc(NNC(=O)Nc2ccccc2)n1	> 100 µM
COc1cccc(/C=C\c2ccc(O)cc2)c1	> 100 µM
CC1=NN(c2nc(N)nc(/C(C#N)=C\c3cccc([N+](=O)[O-])c3)n2)C(C)(C)C1	> 23 µM
COc1cc(C2c3c(ccc4ccccc34)C(=O)C3CCC(=O)N32)cc(OC)c1O (stereo unspecified)	> 25 µM
C#CC1NC(=O)C1N(CC)CC (stereo unspecified)	> 100 µM

* * *

Tested on: SF-268 CNS
measurementNotes: NCI tumour cell line growth inhibition, 48 h
assayMetric: TGI

molecule	assayMetric	valueObserved
O=C(O)Cc1cccc2c(=O)c3cccc([N+](=O)[O-])c3oc12	TGI	> 100 µM
N/C(=N\S(=O)(=O)c1cc(Cl)c(Oc2ccc([N+](=O)[O-])cc2Cl)c(Cl)c1)Nc1ccc(Cl)cc1	TGI	> 100 µM
COC(=O)[C@]12CC[C@@H](C)[C@H](C)[C@@H]1C1=CC[C@@H]3[C@@]4(C)C(C=O)=C[C@@](C)(COC(=O)/C=C/c5ccccc5)[C@@H]4[C@H](O)C[C@@]3(C)[C@]1(C)CC2	TGI	48.3 µM
CC(=O)O[C@H]1CC2C=CC3C(CCC31)O2 (some centres undefined)	TGI	> 100 µM

* * *

Tested on: MCF7 breast
measurementNotes: NCI tumour cell line growth inhibition, 48 h

chemicalSmiles	assayedTarget	rel	TGI [µM]
O=C(O[C@H]1CCN2C[C@H]3C[C@H](CN4C(=O)CCC[C@H]34)[C@@H]2C1)c1ccc(O)cc1	MCF7 breast	>	100
COc1cc2c[n+](C)c3c4cc(OC)c(OC)cc4ccc3c2cc1OC	MCF7 breast	>	100
O=c1c(Cl)cc2nc3ccccc3sc-2c1Cl	MCF7 breast	=	32.4
COC(=O)C1=NN2c3ccccc3CN([C@@H](C)c3ccccc3)C(=O)[C@@H]2[C@H]1c1ccccc1	MCF7 breast	>	100
Cc1cc2nc(N3C(=O)/C(=C/c4ccc(N(C)C)cc4)N=C3c3ccccc3)sc2cc1C	MCF7 breast	=	21.3

* * *

Tested on: SN12C renal
measurementNotes: NCI tumour cell line growth inhibition, 48 h

compound	unitLabel	rel	TGI
O=C1C(S(=O)(=O)c2ccccc2)=C(CS(=O)(=O)c2ccccc2)[C@@H](OCc2ccccc2)[C@@H]1OCc1ccccc1	µM	=	76.4
CN(C)c1ccc(/C=C/c2cc(-c3ccccc3)[n+](C)n2-c2ccccc2)cc1	µM	=	7.6
COC(=O)C(/C(=N\NC(N)=S)C(=O)Nc1ccccc1[N+](=O)[O-])c1cnc2ccccc2n1 (stereo unspecified)	µM	>	100
O=c1c2ccccc2[nH]c2c(Cl)cc(Cl)c(N3CCCCC3)c12	µM	=	55.8
COc1cc2ccc1OCc1cccc(n1)COc1ccc(cc1OC)C=NCCNCCN=C2	µM	>	100
COc1ccc2nc(NC(=O)C(=O)NNC(=O)c3ccncc3)sc2c1	µM	>	100
Cc1ccc(N2C(N)=C(C#N)C(C#N)(C#N)C2c2ccccc2)cc1 (stereo unspecified)	µM	=	30.9
CCOC(=O)CNc1nnnn1C1OC(CO)C(O)C1O (stereo unspecified)	µM	>	100
FC(F)(F)c1cc(Nc2ccc3cc(OCCCN4CCOCC4)ccc3n2)ccc1Cl	µM	=	12.9
COc1cc2c[n+](C)c3c(c2cc1OC)Cc1cc2c(cc1-3)OCO2	µM	>	100
CSc1ccc(C(=O)/C=C/c2ccccc2Cl)cc1	µM	=	32.7
COC1/C=C/C(C)C(C(C)C(OC)C(C)CCC(=O)C(C)C(CC(=O)O)OC)OC(=O)/C=C/C=C(\C)CC(OC)CC2=CC(=O)O[C@H](C2)C(C)C(OC)CC(OC)/C=C/C(C)C(OC)C1 (stereo partly specified)	µM	>	4.35
S=C=NC1CCC(c2cc3ccccc3s2)(N2CCCCC2)CC1 (stereo unspecified)	µM	=	3.77
COc1ccc(C(=O)/C=C/c2ccc(OCC(=N)N)cc2)cc1	µM	=	26.7
Cc1cc(=O)oc2cc(OC/C=C3\CCC(=O)O3)ccc12	µM	=	34.9
COc1ccc2c(c1OC(C)=O)C1=CC(=O)CCC13CCNC3C2 (stereo unspecified)	µM	>	100
COc1cc(/C=N/NC2=NCCCCN2)ccc1O	µM	>	100
COC1CC(O[C@H]2CC[C@@]3(C)[C@@H](CC[C@]4(O)[C@@H]3CC[C@]3(C)[C@@H](C(C)=O)[C@H](OC(=O)CC(C)C)[C@@H](OC(=O)c5ccccc5)[C@@]34O)C2)OC(C)C1OC1CC(OC)C(OC2OC(C)C(O)C(OC)C2O)C(C)O1 (stereo partly specified)	µM	>	25
COC1C(O)C(C)OC(OC2CCC3(C)C(CCC4C3C(O)CC3(C)C(C5=CC(=O)OC5)CCC43O)C2)C1O (stereo unspecified)	µM	=	0.426
[N-]=[N+]=CC(=O)CCC(=O)N(c1ccccc1)c1ccccc1	µM	>	10
C=CCc1c(O)c(C(=O)/C=C/c2ccccc2)c(OC)c2ccoc12	µM	=	14.1
CN(C)CCNC(=O)NC[C@H]1CC[C@@H]2[C@H](O1)c1cc(C(F)(F)F)ccc1N[C@H]2c1ccccc1	µM	>	51.7
Cc1cc(Cl)cc(Cc2cc(Cl)cc(C)c2O)c1O	µM	=	9.7
CCOC(=O)C(=O)Nc1ccccc1C(C)C	µM	>	100
CC[C@@]1(CCC(=O)NCCc2c[nH]c3ccccc23)CCC(=O)N2CCc3c([nH]c4ccccc34)[C@H]21	µM	>	100
CCOC(=O)C(CCc1ncnc2c1ncn2Cc1ccccc1)(CCc1ncnc2c1ncn2Cc1ccccc1)C(=O)OCC	µM	>	100
CN(C(=O)c1ccco1)C(=S)N1CCN(c2ccccn2)CC1	µM	>	100
O=c1oc2ccc3ccccc3c2cc1-c1nc2ccc([N+](=O)[O-])cc2o1	µM	>	100
CCN1CCC(O)(c2ccc(O)cc2)C(C(=O)c2ccc(O)cc2)C1 (stereo unspecified)	µM	=	42
COc1cc(C2c3c(ccc4ccccc34)C(=O)C3CCC(=O)N32)cc(OC)c1O (stereo unspecified)	µM	>	25
COC(=O)C(=O)C(C(=O)C(=O)Nc1cc(C)ccc1C)c1nc2ccc(C(=O)c3ccccc3)cc2[nH]c1=O (stereo unspecified)	µM	>	100
COC(=O)/C(C#N)=C(\N)c1c(C)c2ccccc2oc1=N	µM	>	100
O=c1cc(-c2ccccc2)[nH]c2cc(Cl)ccc12	µM	=	82.3
O=c1c(Cl)cc2nc3ccccc3sc-2c1Cl	µM	=	31.9
Cc1ccc(S(=O)(=O)N2CCc3ccc(O)c4c3C2Cc2ccc3c(c2-4)OCO3)cc1 (stereo unspecified)	µM	>	40
CCCN1CCC(c2ccc(Nc3nc(Nc4cc(F)ccc4C(N)=O)c4cc[nH]c4n3)c(OC)c2)CC1	µM	=	8.55

Hey, just so you know, these numbers are from PubChem BioAssay (NCI).
